# TARGET_ENTITY: Aryl hydrocarbon receptor (Homo sapiens) (UniProt P35869)
# Sequence (P35869 whole entry, looked up): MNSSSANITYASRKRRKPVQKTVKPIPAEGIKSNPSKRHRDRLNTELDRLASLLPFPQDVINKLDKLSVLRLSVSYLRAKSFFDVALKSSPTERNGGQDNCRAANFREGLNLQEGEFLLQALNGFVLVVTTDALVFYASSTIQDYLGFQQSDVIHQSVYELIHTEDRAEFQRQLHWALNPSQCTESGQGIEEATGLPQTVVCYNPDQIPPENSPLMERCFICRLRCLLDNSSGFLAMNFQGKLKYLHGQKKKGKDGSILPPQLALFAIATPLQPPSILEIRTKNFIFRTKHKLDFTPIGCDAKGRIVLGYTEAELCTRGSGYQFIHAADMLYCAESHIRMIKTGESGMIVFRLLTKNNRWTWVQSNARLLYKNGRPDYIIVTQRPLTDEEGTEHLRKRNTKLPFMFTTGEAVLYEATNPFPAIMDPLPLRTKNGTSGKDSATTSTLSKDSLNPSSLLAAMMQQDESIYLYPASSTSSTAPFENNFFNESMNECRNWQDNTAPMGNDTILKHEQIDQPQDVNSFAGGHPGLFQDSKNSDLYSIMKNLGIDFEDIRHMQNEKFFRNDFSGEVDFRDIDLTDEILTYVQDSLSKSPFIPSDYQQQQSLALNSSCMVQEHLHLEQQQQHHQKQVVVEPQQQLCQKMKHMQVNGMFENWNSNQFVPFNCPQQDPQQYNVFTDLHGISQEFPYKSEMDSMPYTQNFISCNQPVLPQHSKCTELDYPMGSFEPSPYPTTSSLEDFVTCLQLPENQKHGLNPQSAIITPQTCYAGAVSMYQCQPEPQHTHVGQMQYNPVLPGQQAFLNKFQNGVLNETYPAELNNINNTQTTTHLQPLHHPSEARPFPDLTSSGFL
# EXPERIMENT_DESCRIPTION: ATG_Ahr_CIS: Attagene CIS-FACTORIAL HepG2 Assay for human Aryl Hydrocarbon Receptor (Ahr) (AID 2282930)
# CONDITIONS_USED: HepG2 AhR cis-factorial reporter transcription; actives raise or lower the signal
Calls of active or inactive are those of the source. How the source made its calls: active means hit-call score of the fitted dose curve at least 0.9, where 1 is the maximum; inactive means score below 0.9.
Labels: active, inactive

[[record]]
compound = "CNC(=O)CSP(=O)(OC)OC"
class_assignment = "inactive"

[[record]]
compound = "N#CS"
class_assignment = "inactive"

[[record]]
compound = "OC(Cc1ccccc1Cl)(Cn1[nH]cnc1=S)C1(Cl)CC1 (stereo not given)"
class_assignment = "inactive"

[[record]]
compound = "N#CCCC(Br)(C#N)CBr (stereo not given)"
class_assignment = "active"

[[record]]
compound = "O=[N+]([O-])c1ccccc1O"
class_assignment = "inactive"

[[record]]
compound = "N#Cc1ccc(Cl)cc1"
class_assignment = "inactive"

[[record]]
compound = "NC(=O)CCl"
class_assignment = "inactive"

[[record]]
compound = "c1csc(-c2ccc(-c3cccs3)s2)c1"
class_assignment = "active"

[[record]]
compound = "ClCCCCl"
class_assignment = "inactive"

[[record]]
compound = "CC(c1ccc(O)cc1)c1ccc(O)cc1"
class_assignment = "inactive"

[[record]]
compound = "Cc1cc(SCc2sc(-c3ccc(C(F)(F)F)c(F)c3)nc2C)ccc1OCC(=O)O"
class_assignment = "inactive"

[[record]]
compound = "N#Cc1cccnc1"
class_assignment = "inactive"

[[record]]
compound = "Nc1nc(N)nc(Cl)n1"
class_assignment = "inactive"

[[record]]
compound = "OC[C@@H](O)[C@H]1O[C@@H]2O[C@H](C(Cl)(Cl)Cl)O[C@@H]2[C@H]1O"
class_assignment = "inactive"

[[record]]
compound = "CCC[CH2][Sn]([Cl])([Cl])[CH2]CCC"
class_assignment = "inactive"


====

# EXPERIMENT_DESCRIPTION: CCTE_Harrill_HTTr_CellCount_MCF7: CCTE's Cell Proliferation Assessment for the High-Throughput Transcriptomics (HTTr) Platform, Harrill Lab (AID 2284012);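 further: count of Hoechst-stained nuclei per well by high-content imaging in MCF-7 cells; cells exposed to compound for six hours; intended direction is loss of nuclei count meaning fewer cells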
Records with an inconclusive call do not appear. Active and inactive are the calls of the source. How the source made its calls: active means hit-call score of the fitted dose curve at least 0.9, where 1 is the maximum; inconclusive means response in the unintended direction; inactive means score below 0.9.
Classes used: class 1 (active), class 0 (inactive)

[[record]]
compound = "O=C1C=CC(=O)c2ccccc21"
class_assignment = "class 1"

[[record]]
compound = "Oc1ccc(Cc2ccc(O)cc2)cc1"
class_assignment = "class 0"

[[record]]
compound = "CCCSP(=S)(OCC)Oc1ccc(Cl)cc1Cl (stereo not given)"
class_assignment = "class 0"

[[record]]
compound = "Nc1ncn[nH]1"
class_assignment = "class 0"

[[record]]
compound = "O=C(O)C1(c2ccc3c(c2)OC[C@H](Cc2ccc(-c4ccccc4)cc2)[C@H]3O)CCCC1"
class_assignment = "class 0"


====

# EXPERIMENT_DESCRIPTION: ATG_E_Box_CIS: Attagene CIS-FACTORIAL HepG2 Assay for human Enhancer Box (E-box) (AID 2282936)
# CONDITIONS_USED: HepG2 E-box cis-reporter transcription, actives raise or lower the signal
Active and inactive are the calls of the source. Rule for the calls: active = hit-call score of the fitted dose curve at least 0.9, where 1 is the maximum; inactive = score below 0.9.
Possible outcomes: active, inactive

[[record]]
molecule = "CN(N=O)c1ccc([N+](=O)[O-])cc1"
class_assignment = "inactive"

[[record]]
molecule = "O=[N+]([O-])c1cc([As](=O)(O)O)ccc1O"
class_assignment = "inactive"

[[record]]
molecule = "Cc1cc(C(C)(C)c2ccc(O)c(C)c2)ccc1O"
class_assignment = "inactive"

[[record]]
molecule = "O=[N+]([O-])c1cccc2ccccc12"
class_assignment = "inactive"

[[record]]
molecule = "O=NN1CCCCCC1"
class_assignment = "inactive"

[[record]]
molecule = "Nc1ncn[nH]1"
class_assignment = "inactive"

[[record]]
molecule = "O=C/C(Cl)=C(/Cl)C(=O)O"
class_assignment = "active"

[[record]]
molecule = "C1CCC(C2CCCCC2)CC1"
class_assignment = "inactive"

[[record]]
molecule = "CCCCOP(=O)(CCCC)OCCCC"
class_assignment = "inactive"

[[record]]
molecule = "OCCCCO"
class_assignment = "inactive"

[[record]]
molecule = "O=C(Nc1ccc(Br)cc1)c1cc(Br)cc(Br)c1O"
class_assignment = "inactive"

[[record]]
molecule = "CC(C)[C@H](C(=O)OC(C#N)c1cccc(Oc2ccccc2)c1)c1ccc(OC(F)F)cc1 (stereo not given in full)"
class_assignment = "inactive"

[[record]]
molecule = "Brc1ccc(Oc2c(Br)cc(Br)cc2Br)c(Br)c1"
class_assignment = "inactive"

[[record]]
molecule = "Oc1cc(Cl)c(Cl)cc1Cl"
class_assignment = "inactive"

[[record]]
molecule = "CC(=O)CN(CC(C)=O)N=O"
class_assignment = "inactive"


The measurements presented in this section are drawn from PubChem BioAssay (EPA / NIEHS).
